- experimental.target: human TRPA1 (Homo sapiens (Human), UniProt O75762)
- Sequence (O75762 whole entry): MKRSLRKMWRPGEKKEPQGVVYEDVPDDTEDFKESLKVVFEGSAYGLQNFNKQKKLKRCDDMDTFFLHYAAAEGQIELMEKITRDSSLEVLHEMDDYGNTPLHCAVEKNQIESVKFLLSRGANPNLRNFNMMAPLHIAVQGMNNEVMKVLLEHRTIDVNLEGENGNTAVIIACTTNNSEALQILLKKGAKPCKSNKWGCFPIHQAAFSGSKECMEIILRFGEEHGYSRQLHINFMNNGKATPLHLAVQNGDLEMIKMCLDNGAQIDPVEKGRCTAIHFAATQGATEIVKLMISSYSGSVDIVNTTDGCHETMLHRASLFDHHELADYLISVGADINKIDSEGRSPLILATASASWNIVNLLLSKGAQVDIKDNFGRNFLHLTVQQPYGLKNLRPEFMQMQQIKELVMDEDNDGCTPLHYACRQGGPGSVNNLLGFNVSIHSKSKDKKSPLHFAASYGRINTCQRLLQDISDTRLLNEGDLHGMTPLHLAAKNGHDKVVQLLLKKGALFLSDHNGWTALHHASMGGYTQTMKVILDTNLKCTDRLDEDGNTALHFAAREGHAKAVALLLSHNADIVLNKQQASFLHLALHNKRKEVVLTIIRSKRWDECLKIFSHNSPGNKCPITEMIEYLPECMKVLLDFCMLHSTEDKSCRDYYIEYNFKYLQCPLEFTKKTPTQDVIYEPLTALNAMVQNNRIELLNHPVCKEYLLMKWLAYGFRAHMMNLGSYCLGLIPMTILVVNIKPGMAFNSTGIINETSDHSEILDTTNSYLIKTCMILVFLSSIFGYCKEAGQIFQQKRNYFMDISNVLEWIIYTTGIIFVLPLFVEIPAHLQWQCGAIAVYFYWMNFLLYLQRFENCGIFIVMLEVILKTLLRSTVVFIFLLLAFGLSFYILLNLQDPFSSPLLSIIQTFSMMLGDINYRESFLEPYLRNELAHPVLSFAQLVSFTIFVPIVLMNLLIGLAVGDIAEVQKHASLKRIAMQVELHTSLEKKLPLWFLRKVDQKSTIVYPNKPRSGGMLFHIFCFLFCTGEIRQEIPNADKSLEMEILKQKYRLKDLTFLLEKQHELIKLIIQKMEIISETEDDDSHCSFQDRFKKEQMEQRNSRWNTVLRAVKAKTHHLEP
- assay: Measurement of TRPA1 antagonist activity (1): intracellular calcium increase
- Assay type: cell-based
- stated.conditions: 293T cells transfected with human TRPA1 expression plasmid; allylisothiocyanate 20 μM stimulation; intracellular calcium fluorescence; read-out: hTRPA1 IC50
pIC50: −log10 of the molar value.
reported.metric: pIC50

Example entries and their recorded answers appear below.
                                   molecule  recorded_number
0  O=C(NC1(c2cc(Cl)cc(-c3ccc(C(F)(F)F)nc3)c2)CC1)[C@@H]1CCCN1S(=O)(=O)c1cc2ccccc2o1 [Example 216]             7.89
1  CNc1ccccc1-c1cc(CNC(=O)[C@@H]2CCCN2S(=O)(=O)c2cc3ccccc3o2)ccn1 [Example 292]             6.24
2  C[C@H](NS(=O)(=O)c1cc2cc(F)ccc2o1)C(=O)NCc1ccc(O)c(-c2ncc(C(F)(F)F)cn2)c1 [Example 253]             6.80
3  CC(C)(C)c1ccc(-c2ccnc(CNC(=O)[C@@H]3CCCN3S(=O)(=O)c3cc4ccccc4o3)c2)cc1 [Example 285]             7.52

[A] CN(C)c1ccc(COc2cccc(CNC(=O)[C@@H]3CCCN3S(=O)(=O)c3cc4cc(F)ccc4o3)c2)cn1 [Example 21]
[B] O=C(NCc1cccc(OCc2cncc(C(F)(F)F)c2)c1)[C@@H]1CCCN1S(=O)(=O)c1cc2ccccc2o1 [Example 9]
In: Compare reported pIC50 values for A and B . Which is lower? Refer to your chosen item by its label in the answer.
Out: A
(A: 7.47, B: 8.12)
